Tested on: SF-539 CNS
Test: NCI tumour cell line growth inhibition, 48 h
observable: log10 TGI (log10 of the value in µM)

[[record]]
molecule = "COc1cccc(/C=C/C(=O)c2ccc(Cl)cc2Cl)c1"
measurement_target = "SF-539 CNS"
observable = "log10 TGI"
measured = 1.36

[[record]]
molecule = "CC[C@H]1C=CCC[C@@]2(C[C@@H]3CC[C@H]4[C@@H](C(=O)OCCCCCCCCCCCCCCCC(=O)N(CCCN)C[C@@H](O)CCN)[C@@]5(CCC[C@@H](C)O5)NC(=[N+]34)N2)O1"
measurement_target = "SF-539 CNS"
observable = "log10 TGI"
measured = 0.44

[[record]]
molecule = "COc1cccc(NC(=O)c2sc3nc4c(cc3c2N)C(=O)CCC4)c1"
measurement_target = "SF-539 CNS"
observable = "log10 TGI"
measured = -0.23

[[record]]
molecule = "Cc1cc(N2CCSCC2)nc(NC2CCCC(Nc3ccnc4cc(Cl)ccc34)C2)n1 (stereo not given)"
measurement_target = "SF-539 CNS"
observable = "log10 TGI"
measured = 0.50

[[record]]
molecule = "CCOC(=O)C(Cc1cccn1C(=O)OC(C)(C)C)[N+](=O)[O-] (stereo not given)"
measurement_target = "SF-539 CNS"
observable = "log10 TGI"
measured = 1.77

[[record]]
molecule = "COc1cc(CNC2c3cc4c(cc3C(c3cc(OC)c(OC)c(OC)c3)[C@H]3C(=O)OCC23)OCO4)cc(OC)c1OC (stereo not given in full)"
measurement_target = "SF-539 CNS"
observable = "log10 TGI"
measured = -0.39

[[record]]
molecule = "C=C(Nc1ccc([N+](=O)[O-])cc1[N+](=O)[O-])c1c/c(=N\\NC(N)=S)c2ccccc2o1"
measurement_target = "SF-539 CNS"
observable = "log10 TGI"
measured = 1.75

[[record]]
molecule = "COc1ccc(/C=N\\Nc2ccc([N+](=O)[O-])cn2)cc1OC"
measurement_target = "SF-539 CNS"
observable = "log10 TGI"
measured = 1.37

[[record]]
molecule = "CCCCCCCCCCCCCCCCOC[C@@H](COC(c1ccccc1)(c1ccccc1)c1ccccc1)O[P+](=S)OC (stereo not given in full)"
measurement_target = "SF-539 CNS"
observable = "log10 TGI"
measured = 0.98

[[record]]
molecule = "Clc1ccc(C2Nc3ccccc3C3=NCCN32)cc1 (stereo not given)"
measurement_target = "SF-539 CNS"
observable = "log10 TGI"
measured = 1.49

[[record]]
molecule = "S=C(c1c[nH]c2ccccc12)N1CCN(Cc2ccccc2)CC1"
measurement_target = "SF-539 CNS"
observable = "log10 TGI"
measured = 1.52

